// data source = patent US20200040057A1

biological target: HLA-B*07 (human); experiment: UV peptide exchange ELISA; +++ = yield >50
endpoint_name: peptide exchange yield

Consider the worked cases shown below.
[[record]]
binder = "RPRLRDLPAL"
recorded_value = "50 to 75%"

[[record]]
binder = "LPLHRGDLVI"
recorded_value = "50 to 75%"

[[record]]
binder = "RAVPVGSGL"
recorded_value = "50 to 75%"


Now examine the next entry.
Exercise: Fill blank: measured peptide exchange yield of the binder IPDTIASVL is ____.
Key: 50 to 75%
